Record form. Attribute: AC50. Fill in for each entry.
Target: human AR (Homo sapiens)
Assay: cell-based
Design: species or system AR2 cells (HepG2-AR2); NanoLuc complementation AR homodimerization, agonist mode, luminescence gain, AC50 by Hill fit
Details: hill_ga, spid=Bgal; agonist mode, 18 h, no CYP expressed

Solved entries (count: 8):
Problem: What AC50 appears in the records for this molecule with human AR (Homo sapiens)? CCCCOC(=O)c1ccc(O)cc1 [Butylparaben]
Result: 10.4 µM

Problem: And O=C(c1ccc(O)cc1O)c1ccc(O)cc1O [2,2',4,4'-Tetrahydroxybenzophenone] ?
Result: 9.83 µM

Problem: And C[C@]12CC[C@H]3C(=CCc4cc(O)ccc43)[C@@H]1CCC2=O [Equilin] ?
Result: 2.14 µM

Problem: And N#Cc1ccc(C(c2ccc(C#N)cc2)n2cncn2)cc1 [Letrozole] ?
Result: > 99.9 µM

Problem: And CC12CC1(C)C(=O)N(c1cc(Cl)cc(Cl)c1)C2=O (stereo not drawn) [Procymidone] ?
Result: > 99.9 µM

Problem: And O=C1C[C@@H](c2ccc(O)cc2)Oc2cc(O)cc(O)c21 [Naringenin] ?
Result: > 99.9 µM

Problem: And CCCSP(=O)(OCC)SCCC [Ethoprop] ?
Result: > 99.9 µM

Problem: And CC(C)(c1ccc(O)cc1)c1ccc(O)cc1 [Bisphenol A] ?
Result: > 99.9 µM

Now let's try a different one.
Problem: What AC50 appears in the records for this molecule with human AR (Homo sapiens)? O=[N+]([O-])c1c(Cl)c(Cl)c(Cl)c(Cl)c1Cl [Pentachloronitrobenzene]
Result: > 99.9 µM

###

Biological target: human AR (Homo sapiens, UniProt P10275)
Sequence (P10275 whole entry): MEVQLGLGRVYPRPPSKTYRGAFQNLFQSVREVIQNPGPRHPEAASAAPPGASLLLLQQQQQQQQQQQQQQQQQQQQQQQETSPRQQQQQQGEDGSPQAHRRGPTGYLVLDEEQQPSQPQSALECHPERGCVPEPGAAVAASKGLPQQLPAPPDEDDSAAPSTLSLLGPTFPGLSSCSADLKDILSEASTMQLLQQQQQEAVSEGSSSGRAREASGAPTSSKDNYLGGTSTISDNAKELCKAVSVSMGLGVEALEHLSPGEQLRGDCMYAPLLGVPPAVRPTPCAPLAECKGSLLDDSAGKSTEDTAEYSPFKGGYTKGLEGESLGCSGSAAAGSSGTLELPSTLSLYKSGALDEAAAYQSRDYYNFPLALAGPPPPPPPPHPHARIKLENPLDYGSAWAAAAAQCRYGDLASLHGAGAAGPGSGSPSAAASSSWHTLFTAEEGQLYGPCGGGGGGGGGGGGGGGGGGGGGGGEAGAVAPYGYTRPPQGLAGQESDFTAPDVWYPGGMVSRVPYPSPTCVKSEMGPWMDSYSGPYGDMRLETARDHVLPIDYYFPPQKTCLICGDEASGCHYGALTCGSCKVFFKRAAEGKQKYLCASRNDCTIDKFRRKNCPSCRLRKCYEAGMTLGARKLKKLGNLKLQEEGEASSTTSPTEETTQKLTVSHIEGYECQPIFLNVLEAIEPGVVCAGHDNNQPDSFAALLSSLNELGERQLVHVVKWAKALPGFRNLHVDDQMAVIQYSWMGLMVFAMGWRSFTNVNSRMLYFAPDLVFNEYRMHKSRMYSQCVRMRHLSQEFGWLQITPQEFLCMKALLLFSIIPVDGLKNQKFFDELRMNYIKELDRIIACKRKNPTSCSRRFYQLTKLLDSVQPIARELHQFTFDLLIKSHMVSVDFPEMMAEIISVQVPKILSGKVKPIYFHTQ
Sequence (P10275 whole entry): as above
Experiment: AR2 assay, agonist mode: ligand-dependent AR homodimerization (NanoBiT luciferase complementation) in stable HepG2-AR2 cells
Type: cell-based
Conditions: sheet agonist_fits; winning concentration-response model (Constant, Hill, Gain-Loss)
Structures can show the parent of a compound that is named as a salt.
recorded-metric: win_model

Problem: What win_model appears in the records for this compound with human AR (Homo sapiens, UniProt P10275)? COP(=O)(OC)O/C(=C\Cl)c1cc(Cl)c(Cl)cc1Cl
Result: Constant

Problem: And CCCC1COC(Cn2cncn2)(c2ccc(Cl)cc2Cl)O1 (centres unmarked) ?
Result: Constant

Problem: And CC12CC1(C)C(=O)N(c1cc(Cl)cc(Cl)c1)C2=O (centres unmarked) ?
Result: Hill

Problem: And CC(C)=CC1C(C(=O)OCN2C(=O)C3=C(CCCC3)C2=O)C1(C)C (centres unmarked) ?
Result: Hill

Problem: And CCOC(=O)CC(SP(=S)(OC)OC)C(=O)OCC (centres unmarked) ?
Result: Constant

Quick request: win_model for each listed item, please.
1. CCCCNC(=O)n1c(NC(=O)OC)nc2ccccc21
2. C[C@]12CC[C@H]3C(=CCc4cc(O)ccc43)[C@@H]1CCC2=O
3. O=c1c(-c2ccc(O)cc2)coc2cc(O)ccc12
4. CNC(=O)O/N=C(\SC)C(=O)N(C)C
5. CCN(CC)CCOc1ccc(/C(=C(/Cl)c2ccccc2)c2ccccc2)cc1 [Enclomiphene hydrochloride]

Result:
Constant
Hill
Constant
Constant
Constant
